Where do the numbers come from? From patent US5958770A.

Experiment: Inhibition of tritiated thymidine uptake, unstimulated lymphocytes
Conditions: human, unstimulated lymphocytes
Recorded endpoint: CC50 (µM)
// return numeric value only (unit: µM, not printed)

[in] Look at this compound and give its reported CC50. O=C(O)CCCc1ccc(N(CCCl)CCCl)cc1 [chlorambucil, reference compound]
[out] 33

###

Tested on: lymphoblastoid cells (EBV transformed lymphocytes)
Experiment: cells
Details: read-out: LD50 (dose to inhibit 50% tritiated thymidine uptake); LCL
Recorded endpoint: IC50 (µM)
// return numeric value only (unit: µM, not printed)

[in] Query IC50 on lymphoblastoid cells (EBV transformed lymphocytes) for O=C(O)CCCc1ccc(N(CCCl)CCCl)cc1 [chlorambucil, reference compound]
[out] 27

###

Experiment: in vitro
Conditions: human, unstimulated lymphocytes
Recorded endpoint: viability at 11.5 µM (%)
// return numeric value only (unit: %, not printed)

[in] Look at this compound and give its reported viability at 11.5 µM. C[C@@H]1CC[C@@]2(NC1)O[C@H]1C[C@H]3[C@@H]4CC=C5C[C@@H](O[C@@H]6O[C@H](CO)[C@@H](O[C@@H]7O[C@@H](C)[C@H](O)[C@@H](O)[C@H]7O)[C@H](O)[C@H]6O[C@@H]6O[C@@H](C)[C@H](O)[C@@H](O)[C@H]6O)CC[C@]5(C)[C@H]4CC[C@]3(C)[C@H]1[C@@H]2C [Solamargine, solamargine]
[out] 76

###

Test: Inhibition of tritiated thymidine uptake, PWM stimulated lymphocytes
Conditions: human, pwm stimulated lymphocytes
Recorded endpoint: CC50 (µM)
// return numeric value only (unit: µM, not printed)

[in] Look at this molecule and give its reported CC50. O=C(O)CCCc1ccc(N(CCCl)CCCl)cc1 [chlorambucil, reference compound]
[out] 22

###

Test: in vitro
Conditions: human, pwm stimulated lymphocytes
Recorded endpoint: CC50 (µM)
// return numeric value only (unit: µM, not printed)

[in] Look at this molecule and give its reported CC50. CC[C@]1(O)C[C@@H]2CN(CCc3c([nH]c4ccccc34)[C@@](C(=O)OC)(c3cc4c(cc3OC)N(C)[C@H]3[C@@](O)(C(=O)OC)[C@H](OC(C)=O)[C@]5(CC)C=CCN6CC[C@]43[C@@H]65)C2)C1 [vinblastine, reference compound]
[out] 10.8

###

Assay: in vitro
Conditions: human, pwm stimulated lymphocytes
Recorded endpoint: viability at 11.5 µM (%)
// return numeric value only (unit: %, not printed)

[in] Look at this molecule and give its reported viability at 11.5 µM. "C[C@@H]1CC[C@@]2(NC1)O[C@H]1C[C@H]3[C@@H]4CC=C5C[C@@H](O[C@@H]6O[C@H](CO)[C@@H](O[C@@H]7O[C@@H](C)[C@H](O)[C@@H](O)[C@H]7O)[C@H](O)[C@H]6O[C@@H]6O[C@@H](C)[C@H](O)[C@@H](O)[C@H]6O)CC[C@]5(C)[C@H]4CC[C@]3(C)[C@H]1[C@@H]2C"
[out] 93

###

Test: in vitro
Settings: human, pha stimulated lymphocytes
Recorded endpoint: viability at 11.3 µM (%)
// return numeric value only (unit: %, not printed)

[in] Look at this compound and give its reported viability at 11.3 µM. C[C@@H]1CC[C@@]2(NC1)O[C@H]1C[C@H]3[C@@H]4CC=C5C[C@@H](O[C@@H]6O[C@H](CO)[C@H](O)[C@H](O[C@@H]7O[C@H](CO)[C@@H](O)[C@H](O)[C@H]7O)[C@H]6O[C@@H]6O[C@@H](C)[C@H](O)[C@@H](O)[C@H]6O)CC[C@]5(C)[C@H]4CC[C@]3(C)[C@H]1[C@@H]2C [Solasonine, solasonine]
[out] 103
